Catalogue of melting point readings, one per entry.
quantityName: melting point

CN1CCC2=C(C1)C(C[N+](=O)[O-])c1cc(Br)ccc1O2 (stereo not drawn) | 140 to 142 °C
CN1CC[C@@]2(O)Oc3ccc([N+](=O)[O-])cc3[C@@H](O)[C@H]2C1 | 158 to 159 °C
CN1CC[C@@]2(O)Oc3ccc(Cl)cc3[C@@H](O)[C@@H]2C1 | 167 to 168 °C
COc1cccc2c1O[C@]1(O)CCN(C)C[C@@H]1[C@@H]2O | 134 to 135 °C
CN1CC[C@@]2(O)Oc3ccc(Cl)cc3[C@@H](O)[C@H]2C1 | 172 to 173 °C
COc1cccc2c1O[C@]1(O)CCN(C)C[C@H]1[C@@H]2O | 148 to 149 °C

====

test system: HCT116, colon cancer cell line; test: Antiproliferative activity, sulforhodamine-B (SRB) assay, HCT116; format: cell-based, human; conditions: Homo sapiens, HCT-116; 72 h exposure; SRB assay; mean ± S.D.; >50 = less than 50% growth inhibition at 50 μM; read-out: Antiproliferative activity IC50, HCT116
quantityName: IC50

COc1cccc2c(=O)c3c(oc12)C=CN(C)C3C#Cc1ccccc1 (stereo not drawn) [3b] | 36.1 µM
CN1CCC2=C(C1)C(c1c[nH]c3ccccc13)c1cc(Cl)ccc1O2 (stereo not drawn) [6a] | 8.62 µM
COc1ccc2[nH]cc(C3C4=C(CCN(C)C4)Oc4ccc(Cl)cc43)c2c1 (stereo not drawn) [6b] | 18.6 µM
CN1CCC2=C(C1)C(c1c[nH]c3ccc(Br)cc13)c1cc(Cl)ccc1O2 (stereo not drawn) [6c] | 9.4 µM
COc1cccc2c1C(=O)c1c(O)c3c(c(O)c1C2=O)C[C@@](O)(C(=O)CO)C[C@@H]3O[C@H]1C[C@H](N)[C@H](O)[C@H](C)O1 [Doxorubicin, doxorubicin, reference compound] | 0.38 µM
CCN1C=Cc2oc3ccccc3c(=O)c2C1C#CC(F)(F)F (stereo not drawn) [3c] | 47.2 µM

====

target: BChE from human serum (Homo sapiens, UniProt P06276); construct: ChEs (human recombinant AChE and BChE from human serum), purchased from Sigma Aldrich (Milan, Italy); purchased Sigma Aldrich (Milan, Italy); host or cells: human serum (natural source); test: biochemical; settings: read-out: hBChE % inhibition at 10 μM; 10 μM concentration; mean ± S.D. (n = 3); n.i. = no inhibition at 10 μM
Sequence (P06276 29-602): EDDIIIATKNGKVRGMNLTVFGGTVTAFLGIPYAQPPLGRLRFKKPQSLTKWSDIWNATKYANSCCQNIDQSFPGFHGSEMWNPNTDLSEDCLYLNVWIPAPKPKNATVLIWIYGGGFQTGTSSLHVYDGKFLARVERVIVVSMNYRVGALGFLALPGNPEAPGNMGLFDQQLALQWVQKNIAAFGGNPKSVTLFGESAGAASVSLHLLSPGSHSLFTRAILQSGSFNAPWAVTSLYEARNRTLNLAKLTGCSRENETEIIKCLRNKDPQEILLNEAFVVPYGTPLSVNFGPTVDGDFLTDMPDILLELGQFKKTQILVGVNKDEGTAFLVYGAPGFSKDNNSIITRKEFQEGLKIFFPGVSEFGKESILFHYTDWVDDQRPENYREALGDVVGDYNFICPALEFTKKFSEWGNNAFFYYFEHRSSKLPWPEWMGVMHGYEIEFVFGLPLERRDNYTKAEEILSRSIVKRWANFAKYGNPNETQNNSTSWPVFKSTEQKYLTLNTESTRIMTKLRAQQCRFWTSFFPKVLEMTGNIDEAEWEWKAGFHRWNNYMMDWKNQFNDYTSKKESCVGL
quantityName: inhibition at 10 µM (%)

CCN1C=Cc2oc3ccccc3c(=O)c2C1C#CC(F)(F)F (centres unmarked) | 15
CN1CCC2=C(C1)C(c1c[nH]c3ccccc13)c1cc(Cl)ccc1O2 (centres unmarked) | 38
COc1ccc2[nH]cc(C3C4=C(CCN(C)C4)Oc4ccc(Cl)cc43)c2c1 (centres unmarked) | 15
CCOc1cccc2c(=O)c3c(oc12)C=CN(C(C)C)C3C#Cc1ccccc1 (centres unmarked) | 10
COc1cccc2c(=O)c3c(oc12)C=CN(C)C3C#Cc1ccccc1 (centres unmarked) | 19

====

molecular target: human recombinant MAO B (Homo sapiens, UniProt P27338); construct: purchased Sigma Aldrich (Milan, Italy); host or cells: baculovirus-infected insect cells; assay: biochemical; assay type: biochemical; settings: read-out: hMAO-B % inhibition at 10 μM
Classify by measured inhibition at 10 µM: Y if it is equal to or exceeds 30%, N if it is smaller.

CCOc1cccc2c(=O)c3c(oc12)C=CN(C(C)C)C3C#Cc1ccccc1 (stereo not shown) [3d] | N
CN1CC[C@@]2(O)Oc3ccc(Br)cc3[C@@H](O)[C@@H]2C1 (relative stereo) [8c] | N
CN1CC[C@@]2(O)Oc3ccccc3[C@@H](O)[C@H]2C1 (relative stereo) [7a] | N
CN1CC[C@@]2(O)Oc3ccc(Br)cc3[C@@H](O)[C@H]2C1 (relative stereo) [7c] | Y
CN1CC[C@@]2(O)Oc3ccccc3[C@@H](O)[C@@H]2C1 (relative stereo) [8a] | Y
CN1CCc2oc3ccccc3c(=O)c2C1 [1a] | N
CCN1C=Cc2oc3ccccc3c(=O)c2C1C#CC(F)(F)F (stereo not shown) [3c] | N
CN1CC=C2Oc3ccc(Cl)cc3C=C2C1 [2a] | Y
O[C@@H]1c2ccccc2O[C@]2(O)CCN(Cc3ccccc3)C[C@@H]12 (relative stereo) [8e] | Y
CCOc1cccc2c1O[C@]1(O)CCN(C)C[C@@H]1[C@@H]2O (relative stereo) [7e] | N

====

Catalogue of inhibition at 10 µM readings, one per entry.
target: human recombinant AChE (Homo sapiens, UniProt P22303); construct: purchased Sigma Aldrich (Milan, Italy); assay: biochemical; conditions: read-out: hAChE % inhibition at 10 μM
Sequence (P22303 32-614): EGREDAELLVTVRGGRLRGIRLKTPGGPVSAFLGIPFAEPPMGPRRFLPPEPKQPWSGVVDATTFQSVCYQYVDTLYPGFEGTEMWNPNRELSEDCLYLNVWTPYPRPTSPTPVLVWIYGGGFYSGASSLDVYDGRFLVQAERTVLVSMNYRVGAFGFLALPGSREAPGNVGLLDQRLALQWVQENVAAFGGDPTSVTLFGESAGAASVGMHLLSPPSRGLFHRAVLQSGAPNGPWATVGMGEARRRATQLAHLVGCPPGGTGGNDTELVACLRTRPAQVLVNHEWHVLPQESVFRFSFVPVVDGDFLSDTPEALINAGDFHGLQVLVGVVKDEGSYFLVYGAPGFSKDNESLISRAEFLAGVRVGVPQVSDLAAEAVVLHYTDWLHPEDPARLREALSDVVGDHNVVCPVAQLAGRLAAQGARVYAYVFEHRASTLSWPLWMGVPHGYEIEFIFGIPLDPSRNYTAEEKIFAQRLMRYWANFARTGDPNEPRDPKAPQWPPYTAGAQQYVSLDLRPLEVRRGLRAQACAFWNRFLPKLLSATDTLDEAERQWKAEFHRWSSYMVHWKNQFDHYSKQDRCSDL
quantityName: inhibition at 10 µM (%)

O[C@@H]1c2ccccc2O[C@]2(O)CCN(Cc3ccccc3)C[C@@H]12 (relative stereo) | 25
CN1CCC2=C(C1)C(c1c[nH]c3ccc(Br)cc13)c1cc(Cl)ccc1O2 (centres unmarked) | 37
CN1CC=C2Oc3ccc(Cl)cc3C=C2C1 | 25
CN1CC[C@@]2(O)Oc3ccc(Br)cc3[C@@H](O)[C@@H]2C1 (relative stereo) | 45
CN1CC[C@@]2(O)Oc3ccccc3[C@@H](O)[C@@H]2C1 (relative stereo) | 22
CN1CCc2oc3ccccc3c(=O)c2C1 | 34
CN1CCC2=C(C1)C(c1c[nH]c3ccccc13)c1cc(Cl)ccc1O2 (centres unmarked) | 53
COc1ccc2[nH]cc(C3C4=C(CCN(C)C4)Oc4ccc(Cl)cc43)c2c1 (centres unmarked) | 53
CN1CC=C2Oc3ccc(Br)cc3C=C2C1 | 31
COc1cccc2c(=O)c3c(oc12)C=CN(C)C3C#Cc1ccccc1 (centres unmarked) | 39
CN1CC[C@@]2(O)Oc3ccccc3[C@@H](O)[C@H]2C1 (relative stereo) | 24

====

Target: human recombinant MAO B (Homo sapiens, UniProt P27338)
Sequence (P27338 1-520): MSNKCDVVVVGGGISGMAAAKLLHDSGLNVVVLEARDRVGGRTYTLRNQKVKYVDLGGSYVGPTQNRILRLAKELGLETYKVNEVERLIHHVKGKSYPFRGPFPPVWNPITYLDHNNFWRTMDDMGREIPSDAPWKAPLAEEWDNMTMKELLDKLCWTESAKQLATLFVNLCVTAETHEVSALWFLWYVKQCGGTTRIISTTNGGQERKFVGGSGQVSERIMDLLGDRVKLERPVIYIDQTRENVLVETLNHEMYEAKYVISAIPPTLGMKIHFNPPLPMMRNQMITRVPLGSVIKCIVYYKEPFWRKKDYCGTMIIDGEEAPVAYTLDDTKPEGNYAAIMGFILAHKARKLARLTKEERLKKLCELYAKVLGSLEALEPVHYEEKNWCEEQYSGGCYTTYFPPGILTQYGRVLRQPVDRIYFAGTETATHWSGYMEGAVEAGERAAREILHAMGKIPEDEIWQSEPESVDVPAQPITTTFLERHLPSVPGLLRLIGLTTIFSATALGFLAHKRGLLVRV
Assay: biochemical
pKi: −log10 of the molar value.
quantityName: pKi

CN1CCC2=C(C1)C(c1c[nH]c3ccc(Br)cc13)c1cc(Cl)ccc1O2 (centres unmarked) | 5.19
COc1cccc2c(=O)c3c(oc12)C=CN(C)C3C#Cc1ccccc1 (centres unmarked) | 5.85

====

target: human recombinant AChE (Homo sapiens, UniProt P22303); construct: purchased Sigma Aldrich (Milan, Italy); assay: biochemical; conditions: mean ± S.D.; determined for compounds with more than 60% inhibition at 10 μM; read-out: hAChE IC50
pIC50: −log10 of the molar value.
quantityName: pIC50

CN1C=Cc2oc3ccccc3c(=O)c2C1C#Cc1ccccc1 (stereo not shown) [3a] | 5.17

====

system: HCT116, colon cancer cell line; assay: Antiproliferative activity, sulforhodamine-B (SRB) assay, HCT116; format: cell-based, human; settings: Homo sapiens, HCT-116, 72 h, read-out: Antiproliferative activity IC50, HCT116
pIC50: −log10 of the molar value.
quantityName: pIC50

CN1CC=C2Oc3ccc(Br)cc3C=C2C1 [2b] | < 4.30

====

target: human recombinant MAO B (Homo sapiens, UniProt P27338); assay: biochemical; settings: hMAO-B IC50, mean ± S.D.; determined for compounds with more than 60% inhibition at 10 μM
Catalogue of IC50 readings, one per entry.
quantityName: IC50

CN1CC=C2Oc3ccc(Br)cc3C=C2C1 [2b] | 7.88 µM
CN1CCC2=C(C1)C(c1c[nH]c3ccccc13)c1cc(Cl)ccc1O2 (centres unmarked) [6a] | 7.3 µM
CN1C=Cc2oc3ccccc3c(=O)c2C1C#Cc1ccccc1 (centres unmarked) [3a] | 0.51 µM
COc1ccc2[nH]cc(C3C4=C(CCN(C)C4)Oc4ccc(Cl)cc43)c2c1 (centres unmarked) [6b] | 4.72 µM
CN1CCC2=C(C1)C(c1c[nH]c3ccc(Br)cc13)c1cc(Cl)ccc1O2 (centres unmarked) [6c] | 3.51 µM
